Source listed as patent US20160243112A1.

Reported pIC50 values for the following molecules.
# TESTED SYSTEM: cloned human NMDA receptor (NR1/NR2A) channel (Homo sapiens, UniProt Q05586+Q12879)
# Sequence (Q12879 23-1464, other chains not shown): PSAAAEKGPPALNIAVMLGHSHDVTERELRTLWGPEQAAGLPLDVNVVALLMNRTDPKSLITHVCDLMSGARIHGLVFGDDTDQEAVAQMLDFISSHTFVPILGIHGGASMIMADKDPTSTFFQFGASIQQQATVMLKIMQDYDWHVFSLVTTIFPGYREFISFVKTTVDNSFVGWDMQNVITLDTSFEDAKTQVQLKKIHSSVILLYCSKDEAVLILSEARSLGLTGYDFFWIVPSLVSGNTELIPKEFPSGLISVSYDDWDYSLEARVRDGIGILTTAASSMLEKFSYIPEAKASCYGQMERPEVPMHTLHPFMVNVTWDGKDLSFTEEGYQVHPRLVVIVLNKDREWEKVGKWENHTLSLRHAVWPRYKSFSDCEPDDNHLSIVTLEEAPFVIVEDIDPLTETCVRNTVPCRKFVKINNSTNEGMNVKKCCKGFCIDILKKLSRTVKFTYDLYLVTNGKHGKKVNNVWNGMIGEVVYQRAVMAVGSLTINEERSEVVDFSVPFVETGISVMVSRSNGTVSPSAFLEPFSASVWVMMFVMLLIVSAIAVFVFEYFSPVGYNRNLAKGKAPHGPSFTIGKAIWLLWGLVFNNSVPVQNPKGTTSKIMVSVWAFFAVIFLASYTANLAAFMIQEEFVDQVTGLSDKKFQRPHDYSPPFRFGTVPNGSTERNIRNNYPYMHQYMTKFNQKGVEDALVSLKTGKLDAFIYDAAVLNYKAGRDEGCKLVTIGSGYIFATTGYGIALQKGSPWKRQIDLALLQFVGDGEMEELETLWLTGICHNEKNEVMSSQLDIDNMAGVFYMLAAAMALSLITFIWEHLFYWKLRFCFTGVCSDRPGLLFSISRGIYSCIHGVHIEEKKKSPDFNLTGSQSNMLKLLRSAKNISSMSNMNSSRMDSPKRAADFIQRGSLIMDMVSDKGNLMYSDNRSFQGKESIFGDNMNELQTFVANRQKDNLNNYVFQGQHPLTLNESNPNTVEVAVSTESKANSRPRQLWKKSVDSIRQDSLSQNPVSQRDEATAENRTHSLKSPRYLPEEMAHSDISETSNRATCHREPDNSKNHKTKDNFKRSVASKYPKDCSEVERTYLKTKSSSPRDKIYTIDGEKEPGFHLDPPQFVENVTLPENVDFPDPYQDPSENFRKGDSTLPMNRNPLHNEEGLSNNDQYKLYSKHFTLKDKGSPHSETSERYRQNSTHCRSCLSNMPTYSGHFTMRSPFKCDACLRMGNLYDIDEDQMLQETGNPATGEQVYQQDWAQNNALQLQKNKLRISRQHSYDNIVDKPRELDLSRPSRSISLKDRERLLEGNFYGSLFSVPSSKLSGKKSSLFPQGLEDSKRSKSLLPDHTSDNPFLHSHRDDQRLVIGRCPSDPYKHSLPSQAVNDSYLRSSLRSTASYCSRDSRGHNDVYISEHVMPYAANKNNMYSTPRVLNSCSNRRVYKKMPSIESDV
# EXPERIMENTAL DETAILS: FLIPR Ca++ flux assay in NR1/NR2A expressing HEK cells
pIC50: −log10 of the molar value. Structures can show the parent of a compound that is named as a salt.
OUTCOME MEASURE: pIC50

* CN1CC[C@@]23CCCCC2[C@@H]1Cc1ccc(-c2nnc(C(C)(C)O)s2)cc13 (stereo partly drawn) | < 3.30
* Cc1nnc(-c2ccc3c(c2)[C@]24CCCCC2[C@H](C3)N(CCc2ccccc2)CC4)s1 (stereo partly drawn) | < 3.30
* CN1CC[C@@]23CCCCC2[C@@H]1Cc1ccc(-c2nnc(C(C)(C)C)s2)cc13 (stereo partly drawn) | < 3.30
* Cc1nnc(-c2ccc3c(c2)[C@]24CCCC[C@@H]2[C@H](C3)N(C)CC4)o1 | < 3.30
* O=C(O)c1ccc2c(c1)[C@]13CCCC[C@@H]1[C@H](C2)N(CCc1ccccc1)CC3 | < 3.30
* CN1CC[C@@]23CCCCC2[C@@H]1Cc1ccc(-c2nnc(C(F)(F)F)s2)cc13 (stereo partly drawn) | < 3.30
* Cc1nnc(-c2ccc3c(c2)[C@]24CCCC[C@@H]2[C@H](C3)N(C)CC4)s1 [Compound-3, hydrochloride] | 4.03
* CN1CC[C@@]23CCCCC2[C@@H]1Cc1ccc(-c2ccsn2)cc13 (stereo partly drawn) | 4.82
* CN1CC[C@@]23CCCC[C@@H]2[C@@H]1Cc1ccc(Br)cc13 | 4.31
